System: UACC-62 melanoma
assay method text: NCI tumour cell line growth inhibition, 48 h
endpoint label: GI50

compound="CC(=O)OC1CCC2(C)C(CCC3C2CCC2(C)C(C4=CC(=O)OC4)CCC32)C1 (stereo not drawn)" result="1010 nM"
compound=Cc1ccc(C(=O)Nc2ccc(CN3CCN(C)CC3)c(C(F)(F)F)c2)cc1C#Cc1cncc2ncccc12 result="102 nM"
compound=COc1ccc(C(=O)Nc2ncc(Cc3ccc(F)cc3)s2)cc1 result="46.9 nM"
compound=Cc1cc[c-]cc1.Fc1c[c-]c(-c2ccccn2)c(F)c1.N#CCC[PH+](CCC#N)c1ccccc1.[Pt+2] result="1790 nM"

Recorded result, `O=C(c1ccc(O)cc1)c1ccc(C(=O)c2ccc(O)cc2)cc1` , GI50: > 100000 nM

Form field GI50, entry `CC(C)(C)c1ccc(C(=O)N/N=C/c2ccc(O)cc2O)cc1` : 363 nM

Summary for this compound, `C/C1=C\CC[C@@](C)(O)[C@H]2C[C@H](CC/C(C)=C/CC1)C1(CC1)C(=O)O2` : GI50 is 23900 nM

response.value for `Nc1c(C(=O)Nc2cccc3ccccc23)sc2nc3c(cc12)CCCC3` (field: GI50) = 716 nM

Quick note, GI50 for `COc1cc(/C=C/C(=O)c2c(C)n([O-])c3cc(C)c(C)cc3[n+]2=O)cc(OC)c1OC` landed at 15500 nM

###

System: BT-549 breast
assay method text: NCI tumour cell line growth inhibition, 48 h; in the data active = GI50 below about 0.43 µM; inactive = the rest
A correct response names exactly one class from class 1 = active, class 0 = inactive

molecule="O=C1CC(c2ccccc2)Cc2nc3ccc(Cl)cc3cc21 (stereo unspecified)" class="class 0"
molecule="O=C1OCC2=C1C(c1cccc(F)c1)c1cc3c(cc1N2CCO)OCCO3 (stereo unspecified)" class="class 1"
molecule=Cn1cc(-c2csc(-c3cn(CCN4CCOCC4)c4ccc(F)cc34)n2)c2cccnc21 class="class 0"

Ask: Recorded call for O=C1Nc2ccccc2C12CC(c1ccccc1)=NN2 (stereo unspecified) ?
Result: class 0

Ask: Look up the recorded call for `C[C@@H]1CN(Cc2ccc(/C=C/c3n[nH]c4ccc5nc(-c6cn[nH]c6C(F)(F)F)c6c(c5c34)CCCC6)cc2)C[C@H](C)O1` in this test.
Result: class 0

Ask: Query: recorded result category for O=C1C2C(C(=O)[N]1[Hg][c]1ccccc1)C1(Cl)C(Cl)=C(Cl)C2(Cl)C1(Cl)Cl (stereo unspecified) in this test
Result: class 0

Ask: Hi, do you know how `COc1cc2c(cc1OCCCCC(=O)Nc1ccc(-c3nc4ccccc4s3)cc1)N=C[C@@H]1CCCN1C2=O` came out in this test?
Result: class 0

Ask: Please share the test call associated with COC(=O)C1CC2(c3ccc(C)cc3)C(c3ccc(C)cc3)=C(c3ccc(C)cc3)C1(c1ccc(C)cc1)S2=O (stereo unspecified) .
Result: class 0

Ask: Record request — test call for `CN(C)CCCNC(=O)c1cc2c3ccccc3[nH]c2c2ncccc12`
Result: class 0

Ask: Name the outcome recorded for `Cc1cc(-c2ccccc2)c(C)n1Cc1ccc(Cl)cc1` in the assay.
Result: class 0

Ask: # lookup: test call for `COc1cc(/C=C/C(=O)c2c(C)n([O-])c3cc(C)c(C)cc3[n+]2=O)cc(OC)c1OC`
Result: class 0
